Cited source for all entries: paper PMC6743422

- Assay Summary: Plasma and CSF distribution of MGS0008 in rats
- Format: in vivo
- Applied Conditions: Wistar, rat, plasma; fasted male rats; MGS0008 oral 3 mg/kg; 24 h; below lower limit of quantification; read-out: Plasma concentration
- Experimental: The pharmacokinetic profiles of MGS0008 and MGS0274 were investigated in fasted male Wistar rats (n = 3) and fed male cynomolgus monkeys (n = 4). Monkeys had been given 60 g of a primate diet (PS‐A; Oriental Yeast, Tokyo, Japan) one hour before administration. […] The plasma concentration‐time profiles of MGS0008 and MGS0274 were analyzed using a non‐compartmental analysis method with pharmacokinetic analysis software Phoenix® WinNonlin® 6.2 or later (Certara, Princeton, NJ).
Measured Attribute: concentration at 24 h

> print(dat)
                                   compound     measured.attribute  result.value
1  N[C@]1(C(=O)O)[C@H]2[C@@H](C[C@@H]1F)[C@@H]2C(=O)O [MGS0008]  concentration at 24 h     < 3 ng/mL

* * *

- Assay Summary: Plasma and CSF distribution of MGS0008 in rats
- Type: in vivo
- Applied Conditions: Wistar, rat, plasma; fasted male rats; MGS0008 oral 3 mg/kg; read-out: AUC0–24h in plasma
- Procedure: The pharmacokinetic profiles of MGS0008 and MGS0274 were investigated in fasted male Wistar rats (n = 3) and fed male cynomolgus monkeys (n = 4). Monkeys had been given 60 g of a primate diet (PS‐A; Oriental Yeast, Tokyo, Japan) one hour before administration. […] The plasma concentration‐time profiles of MGS0008 and MGS0274 were analyzed using a non‐compartmental analysis method with pharmacokinetic analysis software Phoenix® WinNonlin® 6.2 or later (Certara, Princeton, NJ).
Measured Attribute: AUC(0-t) (ng·h/mL)

> print(dat)
                            compound.smiles  measured.attribute  result.value
1  N[C@]1(C(=O)O)[C@H]2[C@@H](C[C@@H]1F)[C@@H]2C(=O)O            AUC(0-t)          4330

* * *

compounds and their reported IC50
- Assay Target: CYP1A2 (Homo sapiens, UniProt P05177)
- Construct: using probe substrates for each CYP isoform and human liver microsomes
- Sequence (P05177 1-516): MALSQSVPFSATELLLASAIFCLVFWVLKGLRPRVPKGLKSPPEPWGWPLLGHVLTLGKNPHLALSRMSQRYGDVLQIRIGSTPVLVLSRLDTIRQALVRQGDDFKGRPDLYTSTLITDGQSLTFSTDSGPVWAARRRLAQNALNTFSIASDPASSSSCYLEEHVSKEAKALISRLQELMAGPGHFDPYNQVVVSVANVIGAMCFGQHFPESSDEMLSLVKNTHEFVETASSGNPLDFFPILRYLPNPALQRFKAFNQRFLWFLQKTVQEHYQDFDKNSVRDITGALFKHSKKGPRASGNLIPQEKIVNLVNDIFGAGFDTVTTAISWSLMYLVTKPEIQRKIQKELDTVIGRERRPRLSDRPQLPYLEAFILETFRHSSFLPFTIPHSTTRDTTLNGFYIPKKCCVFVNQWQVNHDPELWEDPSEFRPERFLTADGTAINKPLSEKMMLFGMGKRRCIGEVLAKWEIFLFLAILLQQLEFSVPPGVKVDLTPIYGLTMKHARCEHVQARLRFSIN
- Assay Summary: CYP inhibition in human liver microsomes, CYP1A2
- Applied Conditions: human liver microsomes 0.1 mg/mL; probe Phenacetin, metabolite Acetaminophen

Compound	IC50
N[C@]1(C(=O)O)[C@H]2[C@@H](C[C@@H]1F)[C@@H]2C(=O)O	> 100 µM
CC(C)[C@@H]1CC[C@@H](C)C[C@H]1OC(=O)O[C@@H](C)OC(=O)[C@H]1[C@@H]2C[C@H](F)[C@@](N)(C(=O)O)[C@@H]21.O=S(=O)(O)c1ccccc1 [MGS0274 besylate]	> 10 µM

* * *

- Assay Summary: Plasma and CSF distribution of MGS0008 in rats
- Assay type: in vivo
- Applied Conditions: Wistar, rat, CSF; fasted male rats; MGS0008 oral 3 mg/kg; read-out: AUC0–24h in CSF
Measured Attribute: AUC(0-t) (ng·h/mL)

> print(dat)
                                   compound  units.of.measure  result.value
1  N[C@]1(C(=O)O)[C@H]2[C@@H](C[C@@H]1F)[C@@H]2C(=O)O [MGS0008]           ng·h/mL           123

* * *

- Assay Summary: Plasma and CSF distribution of MGS0008 in rats
- Format: in vivo
- Applied Conditions: Wistar, rat, CSF; fasted male rats; MGS0008 oral 3 mg/kg; 1.5 h; read-out: CSF concentration
- Procedure: The pharmacokinetic profiles of MGS0008 and MGS0274 were investigated in fasted male Wistar rats (n = 3) and fed male cynomolgus monkeys (n = 4). Monkeys had been given 60 g of a primate diet (PS‐A; Oriental Yeast, Tokyo, Japan) one hour before administration. […] The plasma concentration‐time profiles of MGS0008 and MGS0274 were analyzed using a non‐compartmental analysis method with pharmacokinetic analysis software Phoenix® WinNonlin® 6.2 or later (Certara, Princeton, NJ).
Measured Attribute: concentration at 1.5 h

> print(dat)
                            compound.smiles      measured.attribute  result.value
1  N[C@]1(C(=O)O)[C@H]2[C@@H](C[C@@H]1F)[C@@H]2C(=O)O  concentration at 1.5 h    19.1 ng/mL

* * *

- Assay Summary: Pharmacokinetics of MGS0008 in rats (intravenous or oral)
- Type: in vivo, rat
- Applied Conditions: Wistar, rat; fasted male rats; MGS0008 oral 3 mg/kg; plasma
Measured Attribute: Tmax (h)

> print(dat)
                            compound.smiles  units.of.measure  result.value
1  N[C@]1(C(=O)O)[C@H]2[C@@H](C[C@@H]1F)[C@@H]2C(=O)O                 h          1.17

* * *

- Assay Summary: Plasma and CSF distribution of MGS0008 in rats
- Type: in vivo
- Applied Conditions: Wistar, rat, plasma; fasted male rats; MGS0008 oral 3 mg/kg; 1.5 h; read-out: Plasma concentration
Measured Attribute: concentration at 1.5 h

> print(dat)
                            compound.smiles  result.value
1  N[C@]1(C(=O)O)[C@H]2[C@@H](C[C@@H]1F)[C@@H]2C(=O)O    1980 ng/mL

* * *

- Assay Summary: Pharmacokinetics of MGS0008 in rats (intravenous or oral)
- Type: in vivo, rat
- Applied Conditions: Wistar, rat; fasted male rats; MGS0008 oral 3 mg/kg; plasma
Measured Attribute: half-life (min)

> print(dat)
                            compound.smiles  measured.attribute  result.value
1  N[C@]1(C(=O)O)[C@H]2[C@@H](C[C@@H]1F)[C@@H]2C(=O)O           half-life          58.1

* * *

- Assay Summary: Pharmacokinetics of MGS0008 in rats (intravenous or oral)
- Format: in vivo, rat
- Applied Conditions: Wistar, rat, plasma; fasted male rats; MGS0008 oral 3 mg/kg; AUC0-∞ oral / AUC0-∞ intravenous × 100
Measured Attribute: bioavailability (%)

> print(dat)
                                   compound  result.value
1  N[C@]1(C(=O)O)[C@H]2[C@@H](C[C@@H]1F)[C@@H]2C(=O)O [MGS0008]          78.1

* * *

- Assay Summary: Pharmacokinetics of MGS0008 in rats (intravenous or oral)
- Type: in vivo, rat
- Applied Conditions: Wistar, rat; fasted male rats; MGS0008 intravenous 3 mg/kg; plasma
Measured Attribute: AUC(0-inf) (ng·h/mL)

> print(dat)
                            compound.smiles  measured.attribute  result.value
1  N[C@]1(C(=O)O)[C@H]2[C@@H](C[C@@H]1F)[C@@H]2C(=O)O          AUC(0-inf)          5480

* * *

- Assay Summary: Pharmacokinetics after oral MGS0274 besylate in monkeys
- Format: in vivo, cynomolgus monkey
- Applied Conditions: cynomolgus monkey, plasma; fed male monkeys; MGS0274 besylate oral 2.89 mg/kg; compound monitored MGS0274; mean of two animals; read-out: AUC0–24h of MGS0274

Molecule	AUC(0-t)
CC(C)[C@@H]1CC[C@@H](C)C[C@H]1OC(=O)O[C@@H](C)OC(=O)[C@H]1[C@@H]2C[C@H](F)[C@@](N)(C(=O)O)[C@@H]21.O=S(=O)(O)c1ccccc1 [MGS0274 besylate]	2.03 ng·h/mL

* * *

- Tested on: CYP1A2, 2B6, 2C8, 2C9, 2C19, 2D6 and 3A
- Assay Summary: CYP inhibition in human liver microsomes, all 7 isoforms together
- Format: in vitro ADME
- Applied Conditions: human, at 10 μM, all the CYP isoforms tested, read-out: percent inhibition
Measured Attribute: inhibition at 10 µM

Compound	Measured Attribute	Result Value
CC(C)[C@@H]1CC[C@@H](C)C[C@H]1OC(=O)O[C@@H](C)OC(=O)[C@H]1[C@@H]2C[C@H](F)[C@@](N)(C(=O)O)[C@@H]21.O=S(=O)(O)c1ccccc1 [MGS0274 besylate]	inhibition at 10 µM	< 50%
